Listed next: entries and their corresponding Blackgrass plant response rating.
- System: blackgrass
- Test name: Test B postemergence herbicide test
- Assay type: in vivo, Alopecurus myosuroides
- Settings: postemergence, 125 g ai/ha; scale 0 to 100
- Method: At the same time, plants selected from these crop and weed species and also blackgrass (Alopecurus myosuroides Huds.), wheat (Triticum aestivum L.) and wild oat (Avena fatua L.) were treated with postemergence applications of test chemicals formulated in the same manner. […] Treated plants and controls were maintained in a greenhouse for 13 to 15 days, after which time all species were compared to controls and visually evaluated. […]
Lab note: record just the number, no unit beside it.

Query :: Name the recorded Blackgrass plant response rating of the molecule listed here: CCNC(=O)c1cncc(NC(=O)c2nn(C(C)(C)C)nc2C)c1 [Compound 427]
Result :: 0

Query :: Name the recorded Blackgrass plant response rating of the molecule listed here: CCN(CC)C(=O)c1cncc(NC(=O)c2nn(C(C)(C)C)nc2C)c1 [Compound 428]
Result :: 0

Query :: Name the recorded Blackgrass plant response rating of the molecule listed here: CCc1nn(C(C)C)nc1C(=S)Nc1cccc(C(=S)N(C)C)c1 [Compound 410]
Result :: 10

Query :: Name the recorded Blackgrass plant response rating of the molecule listed here: CC(C)(C)n1nc(Br)c(C(=O)Nc2cccc(C(=O)NC3CC3)c2)n1 [Compound 435]
Result :: 20

###

- Test system: barnyardgrass
- Test name: Test B pre-/postemergence herbicide test
- Format: in vivo, Echinochloa crus-galli
- Settings: Postemergence, 125 g ai/ha; scale 0 (no effect) to 100 (complete control)
Measurement name: Barnyardgrass plant response rating

The cases that follow already have their Barnyardgrass plant response rating on record.
>  <Sample smiles>
C#CCNC(=O)c1cccc(NC(=O)c2cc(C(C)(C)C)nn2CC)c1

>  <Measurement name>
Barnyardgrass plant response rating

>  <Result>
20

$$$$
>  <Sample smiles>
C=CCNC(=O)c1cccc(NC(=O)c2cc(C(C)(C)C)nn2CC)c1

>  <Measurement name>
Barnyardgrass plant response rating

>  <Result>
10

$$$$
>  <Sample smiles>
C=CCNC(=O)c1cccc(NC(=O)c2nn(C(C)(C)C)nc2CC)c1

>  <Measurement name>
Barnyardgrass plant response rating

>  <Result>
30

$$$$
>  <Sample smiles>
Cc1nn(C(C)(C)C)nc1C(=O)Nc1cc(C(=O)N(C)C)ccn1

>  <Measurement name>
Barnyardgrass plant response rating

>  <Result>
10

$$$$
>  <Sample smiles>
CCOC(=O)c1cccc(NC(=O)c2nn(C(C)(C)C)nc2Br)c1

>  <Measurement name>
Barnyardgrass plant response rating

>  <Result>
20

$$$$
>  <Sample smiles>
CCOC(=O)c1cncc(NC(=O)c2nn(C(C)(C)C)nc2C)c1

>  <Measurement name>
Barnyardgrass plant response rating

>  <Result>
0

$$$$

Query molecule follows.
Query :: Name the recorded Barnyardgrass plant response rating of the molecule listed here: CC(C)(C)n1nc(Br)c(C(=O)Nc2cccc(C(=O)NC3CC3)c2)n1
Result :: 10

###

Listed next: entries and their corresponding Barnyardgrass plant response rating.
- System: barnyardgrass
- Test name: Test B flooded paddy test
- Format: in vivo, Echinochloa crus-galli
- Settings: 1000 g ai/ha, scale 0 to 100 (0 no effect, 100 complete control)
Lab note: record just the number, no unit beside it.

The cases that follow already have their Barnyardgrass plant response rating on record.
>  <Compound>
CCn1nc(C(C)(C)C)cc1C(=O)Nc1cccc(C(=O)N2CCOCC2)n1 [Compound 247]

>  <Measurement name>
Barnyardgrass plant response rating

>  <Result number>
70

$$$$
>  <Compound>
C=CCNC(=O)c1ccc(F)c(NC(=O)c2sc(CC)nc2C(C)(C)C)c1 [Compound 237]

>  <Measurement name>
Barnyardgrass plant response rating

>  <Result number>
60

$$$$
>  <Compound>
CCOC(=O)c1ccc(F)c(NC(=O)C2CN(C(C)(C)C)N=C2CC)c1 (racemic) [Compound 335]

>  <Measurement name>
Barnyardgrass plant response rating

>  <Result number>
60

$$$$
>  <Compound>
Cc1nn(C(C)(C)C)nc1C(=O)Nc1cccc(C(=O)N2CC=CC2)c1 [Compound 393]

>  <Measurement name>
Barnyardgrass plant response rating

>  <Result number>
90

$$$$

Query compound follows.
Query :: Name the recorded Barnyardgrass plant response rating of the compound listed here: C#CCNC(=O)c1cccc(NC(=O)c2nn(C(C)(C)C)nc2C)c1 [Compound 394]
Result :: 70
